# System: TK-10 renal
# TEST PROTOCOL: NCI-60 one-dose screen, 48 h (100 = growth as untreated, 0 = no growth, -100 = all killed)
# CONDITION SUMMARY: 10 µM unless noted
Compounds without any hit were thinned out: in the full panel of roughly 83,000, 20% have a hit. Calls of active or inactive are those of the source. How the source made its calls: active means growth percent below 10; inactive means the rest.
RECORDED ENDPOINT: growth

Reference set (3 entries):
COc1cccc(NC(=O)c2sc3nc(C)c(C(O)c4ccccc4)cc3c2N)c1 (centres undefined) : 50.8% (inactive)
COc1ccc(-c2cc3cnc4ccccc4c3oc2=O)cc1 : 99.2% (inactive)
N#Cc1ccccc1OCC(=O)Nc1nc2c(s1)COc1ccccc1-2 : 140% (inactive)

Supply measured growth of O=C(/C=C/c1cccs1)Nc1ncc(Cc2ccc(Cl)c(Cl)c2)s1 in your reply.
61.5% (inactive)
